system.tested: human RORγt (Ligand Binding Domain) (Homo sapiens, UniProt P51449)
Construct: purchased Crelux (Planegg, Germany) batch no PC5032-1
Sequence (P51449 269-508 limits assumed): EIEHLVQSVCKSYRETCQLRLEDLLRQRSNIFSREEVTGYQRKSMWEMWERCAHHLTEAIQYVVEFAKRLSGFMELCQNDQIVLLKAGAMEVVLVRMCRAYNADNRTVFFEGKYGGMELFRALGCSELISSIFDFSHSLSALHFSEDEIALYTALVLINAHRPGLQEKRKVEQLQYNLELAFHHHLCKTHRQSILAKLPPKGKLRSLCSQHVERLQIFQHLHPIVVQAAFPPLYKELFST
method.description: Fluorescence Polarization (FP) Assay
stated.conditions: Fluorescence Polarization (FP) Assay; values given as upper bounds of activity ranges; read-out: FP activity range
Protocol: The activity of the compounds was evaluated using a Fluorescence Polarization (FP) Assay and, in most cases, a Th17 Assay and/or RORγ Reporter assay (also referred to as Gal4 assay). The FP assay is an in vitro assay monitoring binding within the ligand binding pocket. The RORγ and the Th17 assays are both cell-based assays monitoring functional activity of the compound assayed. The total volume was 25 μl, in a black Perkin Elmer OptiPlate. As negative control, 1 μl DMSO was used. […]
Reported IC50 values for a set of compounds

In the examples that follow, each entry is paired with its recorded IC50.
{"compound": "CC1CC(c2ccc(C(F)(F)F)cc2)N(c2ncnc(N[C@H](Cc3ccc(F)cc3)C(N)=O)c2F)C1 (some centres unmarked)", "system.tested": "human RORγt (Ligand Binding Domain) (Homo sapiens, UniProt P51449)", "IC50": "< 1000 nM"}
{"compound": "COC(=O)Cc1ccc(CNc2ncnc(N3CCCC3c3ccc(C(F)(F)F)cc3)c2F)cc1 (centres unmarked)", "system.tested": "human RORγt (Ligand Binding Domain) (Homo sapiens, UniProt P51449)", "IC50": "< 2000 nM"}
{"compound": "CC(C)(C)CC(Nc1ncnc(N2CCCC2c2ccc3c(c2)OCCO3)c1F)C(N)=O (stereo in doubt)", "system.tested": "human RORγt (Ligand Binding Domain) (Homo sapiens, UniProt P51449)", "IC50": "< 500 nM"}
{"compound": "OCC1CCC(CNc2ncnc(N3CCC[C@@H]3c3ccc(C(F)(F)F)cc3)c2F)CC1 (some centres unmarked)", "system.tested": "human RORγt (Ligand Binding Domain) (Homo sapiens, UniProt P51449)", "IC50": "< 500 nM"}
{"compound": "O=C(O)C1(CNc2ncnc(N3CCOCC3c3ccc(C(F)(F)F)cc3)c2F)CCOCC1 (centres unmarked)", "system.tested": "human RORγt (Ligand Binding Domain) (Homo sapiens, UniProt P51449)", "IC50": "< 10000 nM"}
{"compound": "N#CC1(CNc2ncnc(N3CCOC[C@@H]3c3ccc(C(F)(F)F)cc3)c2F)CCOCC1", "system.tested": "human RORγt (Ligand Binding Domain) (Homo sapiens, UniProt P51449)", "IC50": "< 500 nM"}
{"compound": "Fc1c(NCC2CCC2)ncnc1N1CCCC1c1ccc(C(F)(F)F)cc1 (centres unmarked)", "system.tested": "human RORγt (Ligand Binding Domain) (Homo sapiens, UniProt P51449)", "IC50": "< 10000 nM"}
{"compound": "COC1CC(c2ccc(C(F)(F)F)cc2)N(c2ncnc(NCc3ccc(C)nc3)c2F)C1 (centres unmarked)", "system.tested": "human RORγt (Ligand Binding Domain) (Homo sapiens, UniProt P51449)", "IC50": "< 10000 nM"}
{"compound": "O=S1(=O)CCC(CNc2ncnc(N3CCC[C@@H]3c3ccc(C(F)(F)F)cc3)c2F)CC1", "system.tested": "human RORγt (Ligand Binding Domain) (Homo sapiens, UniProt P51449)", "IC50": "< 2000 nM"}
{"compound": "CNC(=O)Cc1ccc(CNc2ncnc(N3CCC[C@@H]3c3ccc(C(F)(F)F)cc3)c2F)cc1", "system.tested": "human RORγt (Ligand Binding Domain) (Homo sapiens, UniProt P51449)", "IC50": "< 500 nM"}

Give the reported IC50 for this compound. `CS(=O)(=O)NC1CCN(c2ncnc(N3CCOC[C@@H]3c3ccc(C(F)(F)F)cc3)c2F)CC1`
< 10000 nM

Give the reported IC50 for this compound. NC(=O)Cc1ccc(CNc2ncnc(N3CCCC3c3cccc4ccccc34)c2F)cc1 (centres unmarked)
< 500 nM

Give the reported IC50 for this compound. OC1(CNc2ncnc(N3CCCC3c3ccc(C(F)(F)F)cc3)c2F)CCOCC1 (centres unmarked)
< 500 nM

Give the reported IC50 for this compound. O=C(O)Cc1ccc(COc2ncnc(N3CCCC3c3ccc(C(F)(F)F)cc3)c2F)cc1 (centres unmarked)
< 500 nM
